# TARGET_OR_TEST_SYSTEM: Serine/threonine-protein kinase mTOR (Homo sapiens)
pIC50: −log10 of the molar value.
Class assignment keyed on pIC50, ranges bin 1 (below 8), bin 2 (8 to below 9), bin 3 (9 or more)

INSERT INTO assay_data (compound_structure, assigned_class) VALUES
  ('COc1ccc(NC(=O)Nc2ccc(-c3nc(N4CCOCC4)nc(N4C5CCC4COC5)n3)cc2)cc1OC', 'bin 1');

Please classify: O=C(Nc1ccccc1)Nc1ccc(-c2nc(N3CCOCC3)nc(N3C4CCC3COC4)n2)cc1
bin 2

For O=C(Nc1ccc(-c2nc(N3CCOCC3)nc(N3C4CCC3COC4)n2)cc1)Nc1ccc(-c2cccnc2)nc1 , which pIC50 bin applies?
bin 2

Lab note: which band did O=C(Nc1ccncc1)Nc1ccc(-c2nc(N3CCOCC3)nc(N3C4CCC3COC4)n2)cc1 land in?
bin 3

Assign a bin to O=C(Nc1ccc(F)cc1)Nc1ccc(-c2nc(N3CCOCC3)nc(N3C4CCC3COC4)n2)cc1
bin 2

Tag the class for N#Cc1ccc(NC(=O)Nc2ccc(-c3nc(N4CCOCC4)nc(N4C5CCC4COC5)n3)cc2)cc1
bin 2

---

# TARGET_OR_TEST_SYSTEM: Cytochrome P450 2B6 (Homo sapiens, UniProt P20813)
# Sequence (P20813 whole entry): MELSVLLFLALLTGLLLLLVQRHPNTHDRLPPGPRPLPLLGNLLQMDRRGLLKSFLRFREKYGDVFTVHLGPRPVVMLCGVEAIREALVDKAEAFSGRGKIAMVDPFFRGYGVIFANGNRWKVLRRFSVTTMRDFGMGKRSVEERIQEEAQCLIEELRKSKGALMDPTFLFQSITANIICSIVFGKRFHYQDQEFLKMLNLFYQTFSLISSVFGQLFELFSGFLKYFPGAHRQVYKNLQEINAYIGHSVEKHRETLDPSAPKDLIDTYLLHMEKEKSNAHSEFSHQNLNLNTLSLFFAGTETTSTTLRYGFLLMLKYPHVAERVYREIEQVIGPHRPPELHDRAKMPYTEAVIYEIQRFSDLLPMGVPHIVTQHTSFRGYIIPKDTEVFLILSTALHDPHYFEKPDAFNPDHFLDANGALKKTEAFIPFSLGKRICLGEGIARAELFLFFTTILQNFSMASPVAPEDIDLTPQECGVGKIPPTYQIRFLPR
TEST_READOUT: IC50

Entry O=C(Nc1ccncc1)Nc1ccc(-c2nc(N3CCOCC3)nc(N3C4CCC3COC4)n2)cc1 [PKI-179] , tested on Cytochrome P450 2B6 (Homo sapiens, UniProt P20813), has a reported IC50 of > 30 µM

---

# TARGET_OR_TEST_SYSTEM: Cytochrome P450 2C8 (Homo sapiens)
# Sequence (P10632 whole entry): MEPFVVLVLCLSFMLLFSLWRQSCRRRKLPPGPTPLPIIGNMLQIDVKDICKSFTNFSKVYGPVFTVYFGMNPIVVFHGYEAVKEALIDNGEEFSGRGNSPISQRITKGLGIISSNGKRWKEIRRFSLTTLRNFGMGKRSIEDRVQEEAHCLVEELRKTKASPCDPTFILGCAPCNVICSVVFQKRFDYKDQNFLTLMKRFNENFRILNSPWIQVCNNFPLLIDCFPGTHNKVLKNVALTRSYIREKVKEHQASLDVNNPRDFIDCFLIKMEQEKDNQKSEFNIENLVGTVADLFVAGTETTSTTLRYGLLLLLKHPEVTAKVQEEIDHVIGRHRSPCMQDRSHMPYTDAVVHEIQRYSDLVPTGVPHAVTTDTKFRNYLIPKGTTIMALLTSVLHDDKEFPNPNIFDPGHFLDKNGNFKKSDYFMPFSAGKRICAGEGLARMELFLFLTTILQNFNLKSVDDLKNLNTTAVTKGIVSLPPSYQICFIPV
TEST_READOUT: IC50 (µM)
One number for each entry, in µM.

Form field, IC50 with Cytochrome P450 2C8 (Homo sapiens), item O=C(Nc1ccncc1)Nc1ccc(-c2nc(N3CCOCC3)nc(N3C4CCC3COC4)n2)cc1 : 3

---

# TARGET_OR_TEST_SYSTEM: Phosphatidylinositol 4,5-bisphosphate 3-kinase catalytic subunit gamma isoform (Homo sapiens)
# Sequence (P48736 whole entry, canonical isoform): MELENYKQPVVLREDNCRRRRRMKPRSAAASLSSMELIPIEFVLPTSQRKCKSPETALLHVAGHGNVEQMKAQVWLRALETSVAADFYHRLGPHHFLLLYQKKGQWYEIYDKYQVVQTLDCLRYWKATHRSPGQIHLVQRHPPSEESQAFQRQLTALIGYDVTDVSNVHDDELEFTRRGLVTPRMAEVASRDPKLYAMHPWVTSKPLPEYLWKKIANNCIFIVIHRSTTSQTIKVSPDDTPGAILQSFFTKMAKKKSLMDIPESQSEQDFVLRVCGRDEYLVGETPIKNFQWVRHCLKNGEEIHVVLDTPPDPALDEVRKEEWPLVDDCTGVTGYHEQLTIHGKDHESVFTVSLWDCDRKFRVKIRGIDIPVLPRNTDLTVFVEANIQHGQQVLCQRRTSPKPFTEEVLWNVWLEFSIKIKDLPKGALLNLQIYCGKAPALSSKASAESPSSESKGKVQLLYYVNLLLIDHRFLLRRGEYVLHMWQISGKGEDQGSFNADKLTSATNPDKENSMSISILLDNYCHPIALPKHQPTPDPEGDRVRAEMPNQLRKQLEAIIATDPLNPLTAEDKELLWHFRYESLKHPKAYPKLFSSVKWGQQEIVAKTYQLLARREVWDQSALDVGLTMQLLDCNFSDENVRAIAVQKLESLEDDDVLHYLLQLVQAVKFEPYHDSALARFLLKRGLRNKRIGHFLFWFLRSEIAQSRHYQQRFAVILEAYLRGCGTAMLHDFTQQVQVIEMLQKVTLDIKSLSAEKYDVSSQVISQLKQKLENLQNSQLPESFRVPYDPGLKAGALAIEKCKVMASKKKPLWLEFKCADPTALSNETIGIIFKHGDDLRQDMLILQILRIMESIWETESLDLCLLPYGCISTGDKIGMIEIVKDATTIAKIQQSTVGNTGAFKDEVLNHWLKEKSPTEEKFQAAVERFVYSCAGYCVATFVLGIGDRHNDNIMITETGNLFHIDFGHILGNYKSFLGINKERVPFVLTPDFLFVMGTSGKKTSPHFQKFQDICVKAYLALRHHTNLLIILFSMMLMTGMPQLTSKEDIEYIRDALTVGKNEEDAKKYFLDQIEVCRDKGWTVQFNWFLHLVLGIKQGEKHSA
# ASSAY_PROTOCOL: Inhibition of PI3K-gamma
pIC50: −log10 of the molar value.
Decide using pIC50: a value greater than or equal to 7 is 1, a smaller one is -1.

Illustrative cases are given below, each with its answer.
INSERT INTO measurements (compound, assigned_class) VALUES
  ('O=C(Nc1ccccc1)Nc1ccc(-c2nc(N3CCOCC3)nc(N3C4CCC3COC4)n2)cc1', 1),
  ('O=C(Nc1ccc(-c2nc(N3CCOCC3)nc(N3C4CCC3COC4)n2)cc1)Nc1ccc(-c2cccnc2)nc1', 1),
  ('CN(C)c1ccc(NC(=O)Nc2ccc(-c3nc(N4CCOCC4)nc(N4C5CCC4COC5)n3)cc2)cc1', -1);

Please tell me: is the compound O=C(Nc1ccncc1)Nc1ccc(-c2nc(N3CCOCC3)nc(N3C4COCC3[C@@H](O)C4)n2)cc1 (some centres not stated) at or over 7 in terms of pIC50?
1

Item O=C(Nc1ccc(-c2nc(N3CCOCC3)nc(N3C4CCC3COC4)n2)cc1)Nc1cncnc1 with pIC50 of 7 or above?
-1

Could you verify whether the entry COc1ccc(NC(=O)Nc2ccc(-c3nc(N4CCOCC4)nc(N4C5CCC4COC5)n3)cc2)cc1OC shows pIC50 of no less than 7?
-1
